Every entry's value here was drawn from the supplement of paper PMC10849652.

target: ZNF239 (UniProt Q16600); experiment: log2 fold change, soluble protein after heating vs DMSO (PISA); higher = thermal stabilisation; K562 cells, 10 uM, 30 min; active = over 0.2 and 3.5 SD of the protein, either way, in both replicates (recomputed)
Sequence (Q16600 whole entry, looked up): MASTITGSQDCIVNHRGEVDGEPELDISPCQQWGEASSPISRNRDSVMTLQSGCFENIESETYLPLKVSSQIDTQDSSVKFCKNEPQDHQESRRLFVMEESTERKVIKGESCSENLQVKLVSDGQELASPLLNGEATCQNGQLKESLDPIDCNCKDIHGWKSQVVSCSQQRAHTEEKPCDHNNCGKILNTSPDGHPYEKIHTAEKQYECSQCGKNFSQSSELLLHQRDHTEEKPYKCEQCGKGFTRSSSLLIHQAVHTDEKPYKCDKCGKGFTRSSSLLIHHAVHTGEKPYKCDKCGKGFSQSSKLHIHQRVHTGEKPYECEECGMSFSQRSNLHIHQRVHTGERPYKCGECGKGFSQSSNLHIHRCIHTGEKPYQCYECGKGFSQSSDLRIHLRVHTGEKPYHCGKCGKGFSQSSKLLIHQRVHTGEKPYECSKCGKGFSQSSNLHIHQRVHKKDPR
Targets with a hit are over-represented here; the source holds about 7,900 in all. About 0.6% of all pairs of compound and target were hits.
QUANTITY NAME: log2 fold change
Please reply with the value in numeric form only.

Some compounds with known log2 fold change results, for comparison:
{"COMPOUND": "C[C@@H]1COCCN1c1cc(C2(S(C)(=O)=O)CC2)nc(-c2cccc3[nH]ccc23)n1", "TESTED TARGET": "ZNF239 (UniProt Q16600)", "NUMERIC READOUT": -0.065}
{"COMPOUND": "O=C1NC(=O)/C(=C\\c2ccc3nccnc3c2)S1", "TESTED TARGET": "ZNF239 (UniProt Q16600)", "NUMERIC READOUT": 0.065}
{"COMPOUND": "CCN(CC)Cc1ccc2cc(COC(=O)Nc3ccc(C(=O)NO)cc3)ccc2c1", "TESTED TARGET": "ZNF239 (UniProt Q16600)", "NUMERIC READOUT": -0.226}
{"COMPOUND": "C=CC(=O)N1CCC[C@@H](n2nc(-c3ccc(Oc4ccccc4)cc3)c3c(N)ncnc32)C1", "TESTED TARGET": "ZNF239 (UniProt Q16600)", "NUMERIC READOUT": 0.165}
{"COMPOUND": "CC1=C(C(=O)Nc2cc3cn[nH]c3cc2F)C(c2ccc(C(F)(F)F)cc2)CC(=O)N1 (configuration not stated)", "TESTED TARGET": "ZNF239 (UniProt Q16600)", "NUMERIC READOUT": 0.283}
{"COMPOUND": "CN1CCN(c2nc(C3=C(c4c[nH]c5ccccc45)C(=O)NC3=O)c3ccccc3n2)CC1", "TESTED TARGET": "ZNF239 (UniProt Q16600)", "NUMERIC READOUT": 0.144}

# ---- query compound ----
Q. Given C[C@@H](Oc1cc(-c2cnn(C3CCNCC3)c2)cnc1N)c1c(Cl)ccc(F)c1Cl , state its recorded log2 fold change.
A. -0.124
